# Species: Rattus norvegicus
# assay info: Open TG-GATES - Regimen: Single
# Assay type: toxicity, organism-based, Sprague-Dawley
# Set-up: regimen Single, gender Male, age 6 weeks
# measurement parameters: in vivo, po, 100 mg/kg, 9 h, tissue Plasma, route gavage, dose level Low
measure name: AST (IU/L)
Please state the figure in IU/L; there is no need to write the unit.

structure string: O=C(OC[C@H]1O[C@@H](OC(=O)c2cc(O)c(O)c(OC(=O)c3cc(O)c(O)c(O)c3)c2)[C@H](OC(=O)c2cc(O)c(O)c(OC(=O)c3cc(O)c(O)c(O)c3)c2)[C@@H](OC(=O)c2cc(O)c(O)c(OC(=O)c3cc(O)c(O)c(O)c3)c2)[C@@H]1OC(=O)c1cc(O)c(O)c(OC(=O)c2cc(O)c(O)c(O)c2)c1)c1cc(O)c(O)c(OC(=O)c2cc(O)c(O)c(O)c2)c1
AST [IU/L]: 64.2

Asked: Identify measured AST associated with CN/C(=N/CCSCc1nc[nH]c1C)NC#N
Given back: 62

Asked: Identify measured AST associated with COC(=O)C1=C(C)NC(C)=C(C(=O)OC)C1c1ccccc1[N+](=O)[O-]
Given back: 75.6

Asked: Identify measured AST associated with Cc1nnc2n1-c1ccc(Cl)cc1C(c1ccccc1Cl)=NC2
Given back: 65.4

Asked: Identify measured AST associated with CNC(=C[N+](=O)[O-])NCCSCc1ccc(CN(C)C)o1
Given back: 68
